Test: Clearance in rat at 1 mg/kg, iv and 5 mg/kg, po
Format: ADME, organism-based
Settings: in vivo
PROPERTY: clearance (mL/min/kg)

> print(dat)
                              smiles.string  observed.value
1  CC(=O)c1c(Cl)c(C(=O)NOC[C@H](O)CO)c(Nc2ccc(I)cc2F)n1C             7.1
2  CC(=O)c1cc(C(=O)NOC[C@H](O)CO)c(Nc2ccc(I)cc2F)n1C              48

* * *

Test: Mean residence time in rat at 1 mg/kg, iv
Type: ADME, organism-based
Set-up: dose 1 mg/kg, route intravenous
Details: in vivo
Overview of recorded MRT for various molecules
PROPERTY: MRT (min)

> print(dat)
                              smiles.string  observed.value
1  CC(=O)c1cc(C(=O)NOC[C@H](O)CO)c(Nc2ccc(I)cc2F)n1C            43.2
2  CC(=O)c1cc(C(=O)NOCCO)c(Nc2ccc(I)cc2F)n1C            55.8
3  CC(=O)c1c(Cl)c(C(=O)NOC[C@H](O)CO)c(Nc2ccc(I)cc2F)n1C              51

* * *

Target: Dual specificity mitogen-activated protein kinase kinase 1 (Homo sapiens, UniProt Q02750)
Sequence (Q02750 whole entry): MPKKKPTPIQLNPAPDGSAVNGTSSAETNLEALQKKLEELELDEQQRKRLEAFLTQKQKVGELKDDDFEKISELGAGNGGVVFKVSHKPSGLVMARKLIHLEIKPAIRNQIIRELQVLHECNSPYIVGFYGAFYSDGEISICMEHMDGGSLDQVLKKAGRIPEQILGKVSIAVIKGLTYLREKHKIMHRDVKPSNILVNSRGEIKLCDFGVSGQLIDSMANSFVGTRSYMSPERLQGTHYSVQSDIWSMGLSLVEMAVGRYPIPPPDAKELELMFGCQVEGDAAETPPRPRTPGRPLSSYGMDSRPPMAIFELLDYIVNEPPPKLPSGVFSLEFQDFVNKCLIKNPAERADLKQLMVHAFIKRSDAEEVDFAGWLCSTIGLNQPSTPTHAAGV
Assay: Inhibition of MEK1 by cascade assay method
pIC50: −log10 of the molar value.
PROPERTY: pIC50

> print(dat)
                               smiles.string  property  observed.value
 1  CC(=O)c1c(F)c(C(=O)NOC[C@@H](O)CO)c(Nc2ccc(I)cc2F)n1C     pIC50            7.72
 2  CC(=O)c1c(Cl)c(C(=O)NOC[C@@H](O)CO)c(Nc2ccc(I)cc2F)n1C     pIC50            7.89
 3  CC(=O)c1cc(C(=O)NOC[C@H](O)CO)c(Nc2ccc(I)cc2F)n1C     pIC50            7.70
 4  CC(=O)c1c(Cl)c(C(=O)NOCCO)c(Nc2ccc(I)cc2F)n1C     pIC50            7.74
 5  CC(=O)c1c(F)c(C(=O)NOC[C@H](O)CO)c(Nc2ccc(I)cc2F)n1C     pIC50            7.54
 6  CC(=O)c1cc(C(=O)N2CC[C@@H](O)C2)c(Nc2ccc(I)cc2F)n1C     pIC50            7.89
 7  CC(=O)n1cc(Nc2ccc(I)cc2F)c(C(=O)NOCCO)c1     pIC50            7.96
 8  CC(=O)c1cc(C(=O)N2CC(N)C2)c(Nc2ccc(I)cc2F)n1C     pIC50            8.15
 9  CC(=O)n1cc(C(=O)NOCCO)c(Nc2ccc(I)cc2F)c1C     pIC50            7.70
10     CC(=O)c1cc(C(=O)O)c(Nc2ccc(I)cc2F)n1C     pIC50            7.38

* * *

Experiment: Half life in human liver microsomes
Format: ADME, Microsome
Overview of recorded half-life for various molecules
PROPERTY: half-life (min)

> print(dat)
                              smiles.string  censoring.operator  observed.value
1     CC(=O)n1cc(C(=O)O)c(Nc2ccc(I)cc2F)c1C                   =              29
2  CC(=O)c1cc(C(=O)NOC[C@H](O)CO)c(Nc2ccc(I)cc2F)n1C                   >             200
3  CC(=O)c1cc(C(=O)N2CC(N)C2)c(Nc2ccc(I)cc2F)n1C                   =              55
4     CC(=O)c1cc(C(=O)O)c(Nc2ccc(I)cc2F)n1C                   =             123
5  CC(=O)n1cc(Nc2ccc(I)cc2F)c(C(=O)NOCCO)c1                   =               3
6  CC(=O)c1cc(C(=O)N2CC[C@@H](O)C2)c(Nc2ccc(I)cc2F)n1C                   =              14

* * *

Experiment: Volume of distribution at steady state in rat at 1 mg/kg, iv and 5 mg/kg, po
Assay type: ADME, organism-based
Conditions: in vivo, read-out: Vdss
Overview of recorded Vd for various molecules
PROPERTY: Vd (L/kg)

> print(dat)
                              smiles.string  observed.value
1  CC(=O)c1cc(C(=O)NOC[C@H](O)CO)c(Nc2ccc(I)cc2F)n1C             2.1
2  CC(=O)c1c(Cl)c(C(=O)NOC[C@H](O)CO)c(Nc2ccc(I)cc2F)n1C           0.361
3  CC(=O)c1cc(C(=O)NOCCO)c(Nc2ccc(I)cc2F)n1C             2.9

* * *

Overview of recorded bioavailability for various molecules
Experiment: Oral bioavailability in rat at 5 mg/kg
Assay type: ADME, organism-based
Conditions: in vivo
PROPERTY: bioavailability (%)

> print(dat)
                              smiles.string         property  observed.value
1  CC(=O)c1cc(C(=O)NOC[C@H](O)CO)c(Nc2ccc(I)cc2F)n1C  bioavailability              19
2  CC(=O)c1c(Cl)c(C(=O)NOC[C@H](O)CO)c(Nc2ccc(I)cc2F)n1C  bioavailability              40
3  CC(=O)c1cc(C(=O)NOCCO)c(Nc2ccc(I)cc2F)n1C  bioavailability              46

* * *

Test: Half life in human liver microsomes
Assay type: ADME, Microsome
Please assign 0 whenever half-life is at or above 40 min, and 1 whenever it is below.

> print(dat)
                              smiles.string  class.label
1  CC(=O)n1cc(C(=O)NOCCO)c(Nc2ccc(I)cc2F)c1C            1
2  CC(=O)c1c(Cl)c(C(=O)NOC[C@H](O)CO)c(Nc2ccc(I)cc2F)n1C            0
3  CC(=O)c1c(Cl)c(C(=O)NOC[C@@H](O)CO)c(Nc2ccc(I)cc2F)n1C            1
4  CC(=O)c1cc(C(=O)NOCCCO)c(Nc2ccc(I)cc2F)n1C            0
5  CC(=O)c1cc(C(=O)NOC(CO)CO)c(Nc2ccc(I)cc2F)n1C            0
6      CC(=O)n1cc(Nc2ccc(I)cc2F)c(C(=O)O)c1            1

* * *

Overview of recorded half-life for various compounds
Assay: Half life in rat liver microsomes
Format: ADME, Microsome
PROPERTY: half-life (min)

> print(dat)
                              smiles.string  observed.value
1     CC(=O)n1cc(C(=O)O)c(Nc2ccc(I)cc2F)c1C              21
2  CC(=O)c1c(F)c(C(=O)NOC[C@@H](O)CO)c(Nc2ccc(I)cc2F)n1C              49
3  CC(=O)n1cc(Nc2ccc(I)cc2F)c(C(=O)NOCCO)c1               6
4  CC(=O)c1cc(C(=O)NOCCCO)c(Nc2ccc(I)cc2F)n1C              13
